The measurements presented in this section are drawn from PubChem BioAssay (NCATS).

# assay: AP1 Signaling Pathway (AID 357);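 also: ME-180 reporter cells stimulated with EGF at its EC50 level; % is scaled to controls: 0 for no effect and ±100 for the full control effect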
# measurement_conditions: ME-180 (cervical carcinoma) AP-1-bla reporter, EGF-induced, beta-lactamase ratio, 5 h; at 7.69 µM (top of the series) unless noted
Results filed as inconclusive are left out. Active and inactive are the calls of the source. Calls follow the shape of the dose curve; as a rule, active = well fitted curve in either direction with a large enough effect (not every such curve was filed as active); inconclusive = small, poorly fitted or top-dose-only effect, or another doubt; inactive = flat fitted curve, though single readings scatter.
Overview of recorded activity change, negative = inhibition for various compounds

Please indicate activity change, negative = inhibition recorded for COC(=O)c1ccc(CCc2cc(O)ccc2O)cc1
-7.43% (inactive)

Please indicate activity change, negative = inhibition recorded for CSC(N)=NCCC[C@@H](N)C(=O)O
19.2% [at 38 µM] (inactive)

Please indicate activity change, negative = inhibition recorded for Cc1n[nH]c2ccccc2c1=O
-6.55% (inactive)

====

# assay: qHTS assay for small molecule agonists of the antioxidant response element (ARE) signaling pathway measured by Nrf2-dependant transcriptional activity (AID 720636);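 also: HepG2 cells with an ARE-driven luciferase reporter; % of control where 0% means no effect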
# measurement_conditions: ARE-luc HepG2, Nrf2 luciferase reporter, 16 h; series mostly up to 92.4 µM
Records with an inconclusive call do not appear. Calls of active or inactive are those of the source. Calls follow the shape of the dose curve; as a rule, active = well fitted activation curve with a large enough effect in the repeat runs; inconclusive = weak or mixed curves; inactive = flat fitted curve, though single readings scatter.
Permitted responses: Y = active, N = inactive

Worked cases, answers included:
C=CC(=O)CC ... N
Cc1ccc(N)cc1[N+](=O)[O-] ... N
c1ccc2ncccc2c1 ... N
Brc1cc(Oc2cc(Br)c(Br)c(Br)c2Br)c(Br)c(Br)c1Br ... N
O=C=Nc1ccc(Cl)c(Cl)c1 ... N

Each compound tested received a call. Report the one for OC1CCCCC1 .
N

Each compound tested received a call. Report the one for C[Si](C)(C)Cl .
N

Each compound tested received a call. Report the one for Nc1cc(C(=O)O)c(O)c(S(=O)(=O)O)c1 .
N

Each compound tested received a call. Report the one for c1ccncc1 .
N

Each compound tested received a call. Report the one for C=Cc1cccc(C)c1 .
N

Each compound tested received a call. Report the one for O=[N+]([O-])c1ccccc1Nc1ccccc1 .
N

Each compound tested received a call. Report the one for CN(C)c1ccc(Cc2ccc(N(C)C)cc2)cc1 .
N

Each compound tested received a call. Report the one for NC(=O)c1ccc([N+](=O)[O-])cc1 .
N

====

# target_of_assay: Glucocorticoid receptor (Homo sapiens)
# assay: GR-EFC Redistribution (AID 451); also: potency is read from the fitted curve at half-maximal effect
# measurement_conditions: CHO-K1 GR-EFC translocation, beta-gal luminescence, 2 h
Activity calls are given as the source filed them. Calls come from the whole dose curve.
assay_readout: Potency

Below: 2 molecules and their reported Potency.
CN(C(=O)c1ccncc1)c1ccccc1 ... > 9.22 µM (inactive)
CC(=NC1CCCCC1)c1ccccc1O ... > 9.22 µM (inactive)

Please indicate Potency recorded for NC(N)=N[C@H](CCC(=O)O)C(=O)O
> 46 µM (inactive)

Please indicate Potency recorded for O=[N+]([O-])c1ccc(S(=O)(=O)Cc2ccccc2)c([N+](=O)[O-])c1
> 9.22 µM (inactive)

Please indicate Potency recorded for CC(=O)n1c(COS(C)(=O)=O)nc2ccccc21
> 9.22 µM (inactive)

Please indicate Potency recorded for CCCC[S@@](=N)(=O)CC[C@@H](N)C(=O)O
> 46 µM (inactive)

Please indicate Potency recorded for c1ccc(CSCCc2ccncc2)cc1
> 9.22 µM (inactive)

Please indicate Potency recorded for CC(=O)O[C@H]1CC[C@@]2(C)[C@@H](CC[C@H]3[C@H]2CC(=O)[C@@]2(C)[C@@H]3C[C@H]3CC(C)=CC(=O)[C@H]32)C1
> 9.22 µM (inactive)

====

# target_of_assay: Glucocorticoid receptor (Homo sapiens)
# assay: GR-EFC Redistribution (AID 451); also: potency is read from the fitted curve at half-maximal effect
# measurement_conditions: CHO-K1 GR-EFC translocation, beta-gal luminescence, 2 h
Calls of active or inactive are those of the source. Calls follow the shape of the full dose curve.
Overview of recorded Potency for various molecules

O=C(O)c1cc(-c2ccc(-c3ccc(-c4cc(C(=O)O)c5cc(Cl)ccc5n4)cc3)cc2)nc2ccc(Cl)cc12 ... > 9.22 µM (inactive)

Please indicate Potency recorded for O=C(O)CC[C@@H](C(=O)O)N1C(=O)[C@@H]2[C@@H]3CC[C@H](C3)[C@@H]2C1=O
> 9.22 µM (inactive)

Please indicate Potency recorded for O=C(O)/C=C\C(=O)Nc1ccc2c(c1)-c1ccccc1C2
> 9.22 µM (inactive)

====

# target_of_assay: Cytochrome P450 2C19 (Homo sapiens) (UniProt P33261)
# Sequence (P33261 whole entry, looked up): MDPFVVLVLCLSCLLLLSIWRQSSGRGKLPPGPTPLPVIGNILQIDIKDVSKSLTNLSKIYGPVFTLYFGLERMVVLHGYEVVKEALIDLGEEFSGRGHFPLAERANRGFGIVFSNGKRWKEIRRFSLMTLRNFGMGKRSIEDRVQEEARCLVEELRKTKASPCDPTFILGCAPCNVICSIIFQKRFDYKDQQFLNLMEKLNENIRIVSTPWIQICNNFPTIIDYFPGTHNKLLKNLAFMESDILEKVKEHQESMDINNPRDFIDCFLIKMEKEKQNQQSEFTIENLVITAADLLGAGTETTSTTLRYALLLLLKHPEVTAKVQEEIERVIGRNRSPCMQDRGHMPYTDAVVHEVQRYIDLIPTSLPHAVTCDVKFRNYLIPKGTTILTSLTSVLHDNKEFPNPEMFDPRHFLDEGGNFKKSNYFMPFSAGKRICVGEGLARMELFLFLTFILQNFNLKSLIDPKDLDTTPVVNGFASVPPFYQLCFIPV
# assay: qHTS Assay for Inhibitors and Substrates of Cytochrome P450 2C19 (AID 899); also: nearly all actives have a fitted effect of over 60% in size
# measurement_conditions: recombinant CYP2C19, luciferin-H EGE luminescence; series mostly up to 11.4 µM
# Description: NIH Molecular Libraries Screening Centers Network [MLSCN] NIH Chemical Genomics Center [NCGC] The P450 gene superfamily is involved in the metabolism and clearance of xenobiotics. […] The luciferin is then measured by luminescence after the addition of a luciferase detection reagent. […] Inhibitors and some substrates limit the production of luciferin, and decrease measured luminescence. […]
Records with an inconclusive call do not appear. The source made the active and inactive calls. Calls follow the shape of the dose curve; as a rule, active = well fitted inhibition curve with a large enough effect; inconclusive = small, poorly fitted or top-dose-only effect; inactive = no such curve, though single readings can be large or run the other way.
Permitted responses: 1.0 = active, 0.0 = inactive

Worked cases, answers included:
O=C(O)c1ccc(SSc2ccc(C(=O)O)cn2)nc1 ... 1.0
N=C(c1ccc2ccccc2c1)c1ccccc1Cc1ccccc1 ... 1.0
O=c1[nH]c2[nH]c(=S)[nH]c(=S)c2[nH]1 ... 1.0
CN1CCc2[nH]nc(-c3n[nH]c4c3CN(C)CC4)c2C1 ... 0.0
COc1cc2c3cc1Oc1cc(ccc1O)C[C@@H]1c4c(cc(OC)c(O)c4Oc4ccc(cc4)C[C@H]3[N+](C)(C)CC2)CC[N+]1(C)C ... 0.0

Each molecule tested received a call. Report the one for N#C[C@H](c1ccccc1)N1CCCN([C@@H](C#N)c2ccccc2)C1c1ccccc1O (stereo partly drawn) .
1.0

Each molecule tested received a call. Report the one for O=C1c2ccccc2C(=O)N1CCCSc1ccccc1 .
1.0

Each molecule tested received a call. Report the one for CN(CCc1ccccn1)c1ccc2c(c1)C(=O)c1ccccc1-2 .
1.0

Each molecule tested received a call. Report the one for Cc1ccc(C(=N)c2ccccc2Cc2cccc3ccccc23)c2ccccc12 .
1.0

Each molecule tested received a call. Report the one for N#CC(C#N)=CNCCN1CCN(C=C(C#N)C#N)CC1 .
0.0

Each molecule tested received a call. Report the one for O=S(=O)(O)c1cc(O)c2c(N=Cc3ccccc3O)cc(S(=O)(=O)O)cc2c1 .
1.0

Each molecule tested received a call. Report the one for CN(C)CCNc1ccccn1 .
0.0

Each molecule tested received a call. Report the one for CCCC1c2c(ccc3ccccc23)Oc2ccc3ccccc3c21 .
1.0

Each molecule tested received a call. Report the one for c1ccc(SC(Sc2ccccc2)c2ccc3c(c2)OCO3)cc1 .
1.0

Each molecule tested received a call. Report the one for CN(C)CCNCCN .
0.0

Each molecule tested received a call. Report the one for COc1ccc2ccccc2c1/C=C\C(=O)c1ccccc1 .
1.0

Each molecule tested received a call. Report the one for Cc1cc(SCC(=O)c2ccccc2)nc2ccccc12 .
1.0

====

# target_of_assay: Cytochrome P450 1A2 (Homo sapiens) (UniProt P05177)
# Sequence (P05177 whole entry, looked up): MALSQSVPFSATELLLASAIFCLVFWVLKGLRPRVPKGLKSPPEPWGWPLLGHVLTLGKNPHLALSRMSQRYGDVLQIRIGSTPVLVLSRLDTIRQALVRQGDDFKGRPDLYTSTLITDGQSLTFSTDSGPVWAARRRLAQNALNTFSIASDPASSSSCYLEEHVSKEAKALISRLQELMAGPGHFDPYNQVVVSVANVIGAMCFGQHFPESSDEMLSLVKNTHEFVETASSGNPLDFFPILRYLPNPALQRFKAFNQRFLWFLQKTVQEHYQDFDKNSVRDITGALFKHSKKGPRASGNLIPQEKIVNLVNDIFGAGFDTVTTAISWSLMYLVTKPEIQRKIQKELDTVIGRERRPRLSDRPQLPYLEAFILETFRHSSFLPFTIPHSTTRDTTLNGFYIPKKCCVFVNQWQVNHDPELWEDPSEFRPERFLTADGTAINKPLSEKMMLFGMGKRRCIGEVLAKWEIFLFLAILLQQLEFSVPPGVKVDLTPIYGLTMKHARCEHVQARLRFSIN
# assay: p450-cyp1a2 (AID 410);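 also: -100% = full effect of reference inhibitor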
# measurement_conditions: recombinant CYP1A2, luciferin-ME demethylation, luminescence; series mostly up to 11.4 µM
Inconclusive results are not listed. Activity calls are given as the source filed them. The call rests on the fitted dose curve.
assay_readout: activity change, negative = inhibition

O=C1c2ccccc2C(O)(O)[C@@]1(O)[C@]1(O)C(=O)c2ccccc2C1(O)O ... -7.5% [at 2.29 µM] (inactive)
CCO[P@]1(=O)OC[C@@H]2O[C@H](n3cnc4c(N)ncnc43)[C@H](O)[C@@H]2O1 ... -15.6% [at 2.29 µM] (inactive)

Please indicate activity change, negative = inhibition recorded for O=c1[nH]c(=S)[nH]c2c1CN(CCCN1CCOCC1)CN2
-13.5% [at 2.29 µM] (inactive)

Please indicate activity change, negative = inhibition recorded for O=C(C[C@@H]1C=Cc2ccccc2N1C(=O)c1ccccc1)c1ccccc1
-23.2% [at 2.29 µM] (inactive)

Please indicate activity change, negative = inhibition recorded for N=C(N)CCNC(=O)[C@@H]1CCC(N)=N1
-3.4% [at 2.29 µM] (inactive)

Please indicate activity change, negative = inhibition recorded for Nc1nc(N)c2nn(-c3ccc(C(=O)O)cc3)nc2n1
-13.4% [at 2.29 µM] (inactive)

Please indicate activity change, negative = inhibition recorded for O=C(O)[C@@H]1[C@@H]2C[C@H]([C@@H](Br)[C@H]2N2C(=O)CCC2=O)[C@@H]1C(=O)O
-15.8% [at 2.29 µM] (inactive)

Please indicate activity change, negative = inhibition recorded for Nc1ccn([C@@H]2O[C@H](COC(=O)C34CC5CC(CC(C5)C3)C4)[C@@H](O)[C@@H]2O)c(=O)n1
-18.7% [at 2.29 µM] (inactive)

Please indicate activity change, negative = inhibition recorded for O=C(CCN1CCCCC1)N1CCc2c([nH]c3ccccc23)[C@H]1c1cccnc1
-19.7% [at 2.29 µM] (inactive)
